assayed.system: p300 (Homo sapiens, UniProt Q09472)
Construct: host or cells: A549 P300 HiBit cells
Sequence (Q09472 whole entry): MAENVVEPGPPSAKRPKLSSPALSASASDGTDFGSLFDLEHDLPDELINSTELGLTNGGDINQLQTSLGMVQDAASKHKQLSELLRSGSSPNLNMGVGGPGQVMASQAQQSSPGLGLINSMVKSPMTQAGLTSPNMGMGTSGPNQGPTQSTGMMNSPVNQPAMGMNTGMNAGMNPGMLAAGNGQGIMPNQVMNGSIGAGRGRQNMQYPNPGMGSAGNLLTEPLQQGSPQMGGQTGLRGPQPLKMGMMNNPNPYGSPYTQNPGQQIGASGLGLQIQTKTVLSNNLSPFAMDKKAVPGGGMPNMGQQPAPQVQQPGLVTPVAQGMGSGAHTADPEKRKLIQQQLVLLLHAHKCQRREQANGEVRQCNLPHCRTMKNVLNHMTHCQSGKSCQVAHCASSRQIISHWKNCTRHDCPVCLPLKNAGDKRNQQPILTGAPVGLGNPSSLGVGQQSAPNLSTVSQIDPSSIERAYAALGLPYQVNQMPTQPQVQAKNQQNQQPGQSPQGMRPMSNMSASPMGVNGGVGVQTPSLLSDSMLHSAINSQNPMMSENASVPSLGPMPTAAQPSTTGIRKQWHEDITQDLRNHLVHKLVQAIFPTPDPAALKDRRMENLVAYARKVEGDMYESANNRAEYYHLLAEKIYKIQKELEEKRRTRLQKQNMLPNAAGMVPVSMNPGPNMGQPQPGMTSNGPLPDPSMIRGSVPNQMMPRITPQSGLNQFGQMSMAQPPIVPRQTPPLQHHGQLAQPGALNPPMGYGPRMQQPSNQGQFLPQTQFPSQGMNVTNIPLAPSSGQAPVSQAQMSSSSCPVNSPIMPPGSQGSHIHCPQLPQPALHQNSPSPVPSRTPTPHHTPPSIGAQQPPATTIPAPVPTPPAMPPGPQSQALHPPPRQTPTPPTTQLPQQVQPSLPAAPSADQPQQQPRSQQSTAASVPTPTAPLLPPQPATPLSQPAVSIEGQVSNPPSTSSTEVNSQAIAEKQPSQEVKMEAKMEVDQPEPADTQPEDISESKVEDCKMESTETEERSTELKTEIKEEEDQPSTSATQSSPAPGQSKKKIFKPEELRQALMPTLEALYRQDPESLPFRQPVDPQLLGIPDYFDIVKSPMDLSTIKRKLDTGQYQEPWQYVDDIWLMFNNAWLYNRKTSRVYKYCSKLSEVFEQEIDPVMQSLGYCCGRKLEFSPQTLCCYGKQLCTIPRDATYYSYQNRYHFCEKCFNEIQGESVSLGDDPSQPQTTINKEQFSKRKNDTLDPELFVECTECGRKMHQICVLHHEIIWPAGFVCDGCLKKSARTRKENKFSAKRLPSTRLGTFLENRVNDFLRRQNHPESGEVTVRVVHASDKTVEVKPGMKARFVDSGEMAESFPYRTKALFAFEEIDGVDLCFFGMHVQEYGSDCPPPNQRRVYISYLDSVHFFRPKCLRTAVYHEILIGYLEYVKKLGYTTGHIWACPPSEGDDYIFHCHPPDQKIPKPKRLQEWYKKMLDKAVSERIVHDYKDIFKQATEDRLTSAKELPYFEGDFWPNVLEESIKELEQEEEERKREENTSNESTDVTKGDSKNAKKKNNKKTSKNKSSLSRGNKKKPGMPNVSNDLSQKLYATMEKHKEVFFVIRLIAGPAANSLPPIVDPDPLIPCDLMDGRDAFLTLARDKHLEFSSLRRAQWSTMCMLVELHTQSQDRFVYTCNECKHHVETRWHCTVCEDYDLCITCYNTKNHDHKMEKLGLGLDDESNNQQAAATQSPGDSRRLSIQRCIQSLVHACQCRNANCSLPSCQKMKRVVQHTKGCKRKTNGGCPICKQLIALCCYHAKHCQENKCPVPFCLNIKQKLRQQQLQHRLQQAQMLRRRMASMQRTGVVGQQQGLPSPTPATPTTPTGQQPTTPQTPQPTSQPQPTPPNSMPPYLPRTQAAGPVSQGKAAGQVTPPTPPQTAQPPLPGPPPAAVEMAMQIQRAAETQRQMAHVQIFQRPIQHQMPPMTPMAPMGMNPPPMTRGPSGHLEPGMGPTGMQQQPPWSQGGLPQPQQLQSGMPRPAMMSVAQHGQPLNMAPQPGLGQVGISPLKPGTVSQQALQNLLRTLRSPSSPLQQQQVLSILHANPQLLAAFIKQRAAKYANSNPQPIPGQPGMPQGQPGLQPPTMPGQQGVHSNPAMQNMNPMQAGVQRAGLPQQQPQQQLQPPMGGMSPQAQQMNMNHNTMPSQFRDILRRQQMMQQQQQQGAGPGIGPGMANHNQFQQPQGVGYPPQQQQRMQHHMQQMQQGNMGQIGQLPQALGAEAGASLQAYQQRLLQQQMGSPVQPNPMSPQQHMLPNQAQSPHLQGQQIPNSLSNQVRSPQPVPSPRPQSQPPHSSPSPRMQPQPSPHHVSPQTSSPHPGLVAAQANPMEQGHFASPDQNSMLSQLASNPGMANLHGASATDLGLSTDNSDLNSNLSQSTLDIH
test.details: P300 degradation, HiBit technology in A549 P300 HiBit cells (2 h)
Assay type: cell-based
test.parameters: A549 P300 HiBit cells, 2 hrs post treatment
recorded.endpoint: DC50

>  <molecule>
Cc1cc2c(N3CCCc4nc(-c5ccc(C(=O)NCC#Cc6ccc7onc(C8CCC(=O)NC8=O)c7c6)nc5)ncc43)cc(C3CCOCC3)cc2n(C)c1=O (stereo not shown)

>  <DC50>
< 1 nM

$$$$
>  <molecule>
Cn1c(=O)n(C)c2c(N3CC4CC(C3)O4)nc(-c3cccc4cc(-c5ccc(C(=O)NCC#Cc6cc7c(C8CCC(=O)NC8=O)cccc7o6)nc5)ncc34)cc21 (stereo not shown)

>  <DC50>
< 1 nM

$$$$

Give DC50 (p300 (Homo sapiens, UniProt Q09472)) of the following molecule: Cn1c(=O)oc2ccc(-c3cccc4cc(-c5ccc(C(=O)NCC#Cc6ccc7occ(C8CCC(=O)NC8=O)c7c6)nc5)ncc34)cc21 (stereo not shown) > 1000 nM

Record Cc1cc2c(N3CCCc4cc(-c5ccc(C(=O)NCC#Cc6cc7c(C8CCC(=O)NC8=O)cccc7o6)nc5)nnc43)cccc2n(C)c1=O (stereo not shown) : what is its DC50 with p300 (Homo sapiens, UniProt Q09472)? < 1 nM

# value lookup — system p300 (Homo sapiens, UniProt Q09472), readout DC50, item CC(C)c1cc(-c2cccc3cc(-c4ccc(C(=O)NCC#Cc5ccc6c(C#N)cn(C7CCC(=O)NC7=O)c6c5)nc4)ncc23)cc2c1n(C)c(=O)n2C (stereo not shown) 100 to 999 nM

What is its DC50 for p300 (Homo sapiens, UniProt Q09472)? Entry: Cc1cc(-c2ncc(N(C)c3cc(C4CCOCC4)c4c(c3)n(C)c(=O)n4C)cn2)cnc1C(=O)NCC#Cc1ccc2occ(C3CCC(=O)NC3=O)c2c1 (stereo not shown) < 1 nM

Request: DC50, test system p300 (Homo sapiens, UniProt Q09472), entry CC(C)c1cc(C2=CC(C)(C)Oc3cc(-c4ccc(C(=O)NCC#Cc5ccc6occ(C7CCC(=O)NC7=O)c6c5)nc4)c(F)cc32)cc2c1n(C)c(=O)n2C (stereo not shown) 10 to 99 nM

----------
assayed.system: p300 (Homo sapiens, UniProt Q09472)
Construct: host or cells: A549 P300 HiBit cells
test.details: P300 degradation, HiBit technology in A549 P300 HiBit cells (2 h)
Format: cell-based
test.parameters: A549 P300 HiBit cells, 2 hrs post treatment
The reader will find reported DC50 values listed item by item below.

Please review the entries below; each comes with its answer.
>  <compound>
[2H]C([2H])(C#Cc1ccc2occ(C3CCC(=O)NC3=O)c2c1)NC(=O)c1ccc(-c2ncc3c(n2)CCCN3c2cc(C3CCOCC3)cc3c2cc(C)c(=O)n3C)cn1 (centres unmarked) [Example B117]

>  <DC50>
1 to 9.9 nM

$$$$
>  <compound>
Cc1cc(-c2cc3cccc(-c4cc(C)c5c(c4)n(C)c(=O)n5C)c3cn2)cnc1C(=O)NCC#Cc1ccc2occ(C3CCC(=O)NC3=O)c2c1 (centres unmarked) [Example A87]

>  <DC50>
1 to 9.9 nM

$$$$
>  <compound>
CC(C)c1cc(-c2cccc3cc(-c4ccc(C(=O)NCC#Cc5ccn6ncc(C7CCC(=O)NC7=O)c6c5)nc4)ncc23)cc2c1n(C)c(=O)n2C (centres unmarked) [Example A172]

>  <DC50>
< 1 nM

$$$$
>  <compound>
Cc1cc(-c2ncc(N(C)c3cc(C4CCOCC4)c4c(c3)n(C)c(=O)n4C)cn2)cnc1C(=O)NCC#Cc1cc2c(C3CCC(=O)NC3=O)nccc2o1 (centres unmarked) [Example A168]

>  <DC50>
1 to 9.9 nM

$$$$

Look up DC50 for this compound: CN1CCN(c2nc(-c3cccc4cc(-c5ccc(C(=O)NCC#Cc6ccc7occ(C8CCC(=O)NC8=O)c7c6)nc5)ncc34)cc3c2n(C)c(=O)n3C)CC1 (centres unmarked) [Example A102] < 1 nM

Which value of DC50 has been reported for Cc1cc(-c2ncc3c(n2)CCCN3c2nc(N3CCOCC3)cc3c2cc(C)c(=O)n3C)cnc1C(=O)NCC#Cc1cc2c(C3CCC(=O)NC3=O)cccc2o1 (centres unmarked) [Example B89] in the records? 1 to 9.9 nM

Need DC50 of Cn1c(=O)oc2cc(-c3cccc4cc(-c5ccc(C(=O)NCC#Cc6ccc7occ(C8CCC(=O)NC8=O)c7c6)nc5)ncc34)ccc21 (centres unmarked) [Example A120] , thanks. > 1000 nM
